Target: Mcl-1 protein (UniProtKB Q07820) (Homo sapiens (Human), UniProt Q07820)
Sequence (Q07820 whole entry): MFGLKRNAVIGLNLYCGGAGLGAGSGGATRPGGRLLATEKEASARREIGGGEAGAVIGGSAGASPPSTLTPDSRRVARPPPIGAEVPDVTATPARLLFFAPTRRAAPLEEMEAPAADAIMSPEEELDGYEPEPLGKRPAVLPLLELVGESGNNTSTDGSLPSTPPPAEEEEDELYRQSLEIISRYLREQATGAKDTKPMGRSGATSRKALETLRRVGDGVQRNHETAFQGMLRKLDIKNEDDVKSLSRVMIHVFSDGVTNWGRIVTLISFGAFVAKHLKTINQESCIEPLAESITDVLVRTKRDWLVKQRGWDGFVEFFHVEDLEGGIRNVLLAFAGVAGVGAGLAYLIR
Experiment: Inhibition of Mcl-1 by the fluorescence polarisation assay (Example A, Method A)
Type: binding
Conditions: fluorescence polarization assay
measure: Ki (nM)

Below: 2 compounds and their reported Ki.
INSERT INTO assay_data (compound, assay_target, reported_result) VALUES
  ('O=C(O)[C@]1(Nc2cccc(Cl)c2)CC[C@@]2(CC1)c1ccccc1C[C@H]2c1ccc(Oc2ccccc2)cc1', 'Mcl-1 protein (UniProtKB Q07820) (Homo sapiens (Human), UniProt Q07820)', 62.2),
  ('COc1ccc([C@@H]2Cc3ccccc3[C@]23CC[C@@](Nc2cccc(Cl)c2)(C(=O)O)CC3)cc1', 'Mcl-1 protein (UniProtKB Q07820) (Homo sapiens (Human), UniProt Q07820)', 217);

A: CC(C)COc1ccc2c(c1)[C@]1(CC[C@@](Nc3cccc(Cl)c3)(C(=O)O)CC1)C(c1cccc(Oc3ccccc3)c1)C2 (single isomer, unassigned)
B: O=C(O)[C@]1(Nc2cccc(Cl)c2)CC[C@@]2(CC1)c1ccccc1CC2c1cccc(OCc2cccnc2)c1 (single isomer, unassigned)
C: O=C(O)[C@]1(Nc2cccc(Cl)c2)CC[C@@]2(CC1)c1ccccc1C[C@H]2C[C@H](COc1cccnc1)c1ccccc1
D: COc1ccc(Cl)c(C2Cc3ccccc3[C@]23CC[C@@](Nc2ccccc2)(C(=O)O)CC3)c1 (single isomer, unassigned) [Example 260]
Task item: rank_up(items): orders items by reported Ki in ascending numerical order. Record the ranking as a list of labels in the requested order.
Reply: B, A, C, D
(B: 201 nM, A: 810 nM, C: 5280 nM, D: 90100 nM)

----------
Molecular target: Mcl-1 protein (UniProtKB Q07820) (Homo sapiens (Human), UniProt Q07820)
Test: Inhibition of Mcl-1 by the fluorescence polarisation assay (Example A, Method A)
Settings: fluorescence polarization assay
pKi: −log10 of the molar value.
measure: pKi

Worked examples follow.
INSERT INTO measurements (compound, reported_result) VALUES
  ('COc1cccc(N2Cc3ccccc3[C@]23CC[C@](Nc2cccc(Br)c2)(C(=O)O)CC3)c1', 4.44),
  ('O=C(O)[C@]1(Nc2cncc(Br)c2)CC[C@]2(CC1)C(Br)=Cc1ccccc12', 6.24),
  ('O=C(O)[C@]1(Nc2cccc(Br)c2)CC[C@]2(CC1)C(I)=Cc1ccccc12', 6.64),
  ('O=C(O)[C@]1(Nc2cccc(Cl)c2)CC[C@@]2(CC1)c1ccccc1CC2CCCOc1ccnc2ccoc12 (stereo partly shown)', 6.90);

I: CCOC/C=C/C1=Cc2ccccc2[C@]12CC[C@@](Nc1cccc(Cl)c1)(C(=O)O)CC2
II: COc1cc(OC)cc(C2=Cc3ccccc3C23CCC(Nc2cccc(Br)c2)(C(=O)O)CC3)c1 (single isomer, unassigned)
III: C[C@@H](COc1ccnc2sccc12)C[C@H]1Cc2ccccc2[C@]12CC[C@@](Nc1cccc(Cl)c1)(C(=O)O)CC2
Task item: Order the records, beginning with the lowest pKi and ending with the highest. Labels, requested order.
Reply: II, I, III
(II: 4.05, I: 6.79, III: 7.52)

----------
Biological target: Cy5-labelled Mcl1 (amino acids 171-321) C286S protein (UniProtKB Q07820) (Homo sapiens (Human), UniProt Q07820, C286S)
Sequence (Q07820 171-321 C286S): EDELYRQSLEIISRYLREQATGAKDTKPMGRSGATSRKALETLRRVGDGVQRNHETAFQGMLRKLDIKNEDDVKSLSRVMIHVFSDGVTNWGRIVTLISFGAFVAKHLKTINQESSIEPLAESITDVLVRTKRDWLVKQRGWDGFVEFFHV
Test: Inhibition of Mcl-1 by the fluorescence quenching assay (Example A, Method B)
Assay type: binding
Excerpt: Fluorescence quenching assay measures the change fluorescence intensity of C-terminally Cy5-labelled Mcl1 (amino acids 171-321) C286S protein (UniProtKB® primary accession number Q07820) having an amino acid sequence: […] The addition of a compound which binds competitively to the same site as the peptide will result in an increase in the fluorescence intensity of the protein due to displacement of the fluorescence quencher. […]
measure: Ki (nM)

INSERT INTO measurements (molecule, unit_abbreviation, reported_result) VALUES
  ('COCc1cc2c(cc1F)C[C@H](C[C@@H](C)COc1ccnc3c1[C@H](C)CCC3)[C@]21CC[C@](Nc2cccc(Cl)c2)(C(=O)O)CC1 [Example 921]', 'nM', 0.0108),
  ('C[C@@H](COc1ccnc2c1[C@H](C)CCC2)C[C@@H]1Cc2ccc(F)cc2[C@]12CC[C@@](Nc1cccc(Cl)c1)(C(=O)O)CC2 [Example 766]', 'nM', 2.3),
  ('O=C(O)[C@]1(Nc2cccc(Cl)c2)CC[C@@]2(CC1)c1ccccc1CC2CC(COc1ccnc2ccsc12)Cc1ccccc1 (single isomer, unassigned) [Example 560]', 'nM', 92),
  ('Cc1c(Cl)cccc1N[C@]1(C(=O)O)CC[C@]2(CC1)c1ccccc1C[C@@H]2C[C@@H](C)COc1ccnc2c1[C@H](C)CCC2 [Example 708]', 'nM', 0.362),
  ('C[C@@H](COc1ccnc2c1[C@H](C)CC=C2)C[C@H]1Cc2ccccc2[C@]12CC[C@@](Nc1cccc(Cl)c1)(C(=O)O)CC2 [Example 677]', 'nM', 1.18),
  ('COc1ccc2c(c1)[C@]1(CC[C@@](Nc3cccc(Cl)c3)(C(=O)O)CC1)[C@@H](C[C@@H](C)COc1ccnc3c1[C@H](C)CCC3)C2 [Example 781]', 'nM', 0.234);

A: COC[C@@H]1C[C@H]1c1ccc2c(c1)[C@]1(CC[C@@](Nc3cccc(Cl)c3)(C(=O)O)CC1)[C@@H](C[C@@H](C)COc1ccnc3c1[C@H](C)CCC3)C2 [Example 875]
B: C[C@@H](COc1ccnc2c1[C@H](C)CCC2)CC1Cc2c(F)c(Cl)ccc2[C@]12CC[C@@](Nc1cccc(Cl)c1)(C(=O)O)CC2 (single isomer, unassigned) [Example 749]
C: C[C@@H]1CCCc2nccc(OCC(CC3Cc4ccccc4[C@]34CC[C@@](Nc3cccc(Cl)c3)(C(=O)O)CC4)C(F)F)c21 (single isomer, unassigned) [Example 520]
D: C[C@@H](COc1ccnc2c1CCC2)C[C@H]1Cc2ccccc2[C@]12CC[C@@](Nc1cccc(Cl)c1)(C(=O)O)CC2 [Example 599]
E: CC1CCNc2nccc(OC[C@H](C)C[C@H]3Cc4ccccc4[C@]34CC[C@@](Nc3cccc(Cl)c3)(C(=O)O)CC4)c21 (single isomer, unassigned) [Example 641]
Task item: Order the records, beginning with the lowest Ki and ending with the highest. Sort the labels as requested; that list is your answer.
Reply: A, B, D, E, C
(A: 0.0843 nM, B: 0.321 nM, D: 1.05 nM, E: 14 nM, C: 91.4 nM)

----------
Molecular target: Cy5-labelled Mcl1 (amino acids 171-321) C286S protein (UniProtKB Q07820) (Homo sapiens (Human), UniProt Q07820, C286S)
Experiment: Inhibition of Mcl-1 by the fluorescence quenching assay (Example A, Method B)
Format: binding
measure: Ki (nM)

INSERT INTO measurements (compound, measure, reported_result) VALUES
  ('CCCC1COc2cc3c(cc2OC1)[C@]1(CC[C@@](Nc2cccc(Cl)c2)(C(=O)O)CC1)[C@@H](C[C@@H](C)COc1ccnc2c1[C@H](C)CCC2)C3 (single isomer, unassigned) [Example 991]', 'Ki', 0.0764);

a: C[C@@H](COc1ccnc2c1[C@H](C)CCC2)C[C@@H]1Cc2ccc(CO)cc2[C@]12CC[C@@](Nc1cccc(Cl)c1)(C(=O)O)CC2
b: CC(c1ccc(O)cc1)c1ccc2c(c1)[C@]1(CC[C@@](Nc3cccc(Cl)c3)(C(=O)O)CC1)[C@@H](C[C@@H](C)COc1ccnc3c1[C@H](C)CCC3)C2 (some centres unmarked)
Task item: Between a and b , whose recorded Ki is greater? Which one? Tell me its label.
Reply: b

a: C[C@@H]1Cc2nccc(OC[C@H](C)C[C@H]3Cc4ccccc4[C@]34CC[C@@](Nc3cccc(Cl)c3)(C(=O)O)CC4)c2[C@H](C)C1
b: COc1ccc2c(c1)[C@]1(CC[C@@](Nc3cccc(Cl)c3)(C(=O)O)CC1)[C@H](C[C@@H](C)COc1ccnc3c1[C@H](C)CCC3)C2
Task item: I'm curious, which of these has a smaller Ki number: a or b ? State the label of the item chosen.
Reply: b

----------
Target: Cy5-labelled Mcl1 (amino acids 171-321) C286S protein (UniProtKB Q07820) (Homo sapiens (Human), UniProt Q07820, C286S)
Test: Inhibition of Mcl-1 by the fluorescence quenching assay (Example A, Method B)
Format: binding
measure: Ki (nM)

1: C[C@@H](COc1ccnc2c1[C@H](C)CCC2)C[C@@H]1Cc2ccc(COC3CCCO3)cc2[C@]12CC[C@@](Nc1cccc(Cl)c1)(C(=O)O)CC2 (stereo partly shown)
2: CC1Oc2cc3c(cc2O1)[C@]1(CC[C@@](Nc2cccc(Cl)c2)(C(=O)O)CC1)[C@@H](C[C@@H](C)COc1ccnc2c1[C@H](C)CCC2)C3 (single isomer, unassigned) [Example 965]
Task item: Please choose the item with the lower Ki value from this pair: 1 and 2 Field: selected label. Fill in the label of the entry you choose.
Reply: 2
